Test system: MCF7 breast
Experiment: NCI-60 one-dose screen, 48 h (100 = growth as untreated, 0 = no growth, -100 = all killed)
Conditions: 10 µM unless noted
The panel holds about 83,000 compounds, 20% with a hit somewhere; the sample as a whole holds those more often.
VALUE TYPE: growth (%)
Dear colleague, please return just the value in %, with no unit written.

Q: Returns the measured growth for the input molecule. Input: `O=C1c2cccc3cccc(c23)C(=O)N1CCCCCN1CCN(CCCCCOc2ccc(-c3nc4ccc(N5CCOCC5)cc4[nH]3)cc2)CC1`
Result: -25.7

Q: Then this molecule: Cc1ccc(C2=NN3C(C2)c2cc(Br)ccc2OC32CCN(Cc3ccccc3)CC2)o1 (stereo unspecified)
Result: 77.3

Q: And then `CSc1nc(NCCO)c(C#N)c(-c2cccc([N+](=O)[O-])c2)n1` , what is it?
Result: 91.4

Q: Try this molecule next: `Cc1oc(-c2ccc(Cl)cc2Cl)cc1C(=O)Nc1nccs1`
Result: 60.8

Q: Same again, this time with `Cc1cc2c3ccccc3ccc2[n+]2ccccc12`
Result: 27.2

Q: Field entry: `COCCNc1ccc2c3c(cccc13)C(=O)N(CCN(C)C)C2=O`
Result: -16.5

Q: Also need `N#CCCN=Nc1c(O)[nH]c2ccc(F)cc12` , thanks.
Result: 93.9

Q: Next up: `CC(C)(CCCN=C(N)Nc1ccc(Cl)cc1)c1ccc(F)cc1`
Result: 52.9

Origin of values: PubChem BioAssay (NCI)
